Data origin: paper PMC10692362

Biological target: human ERα LBD (Homo sapiens)
Assay: Competitive fluorescence polarization binding assay, ERα
Settings: ratio of RBA ERα to RBA ERβ
Threshold check on α/β ratio: strictly below 7 is y; on or above 7 is n.

Compound	Classification
O=C(CCl)Nc1ccc(OS(=O)(=O)C2CC3OC2C(c2ccc(O)cc2)=C3c2ccc(O)cc2)cc1 (stereo not drawn) [Compound 26e]	y
CC(C)=CC(=O)Nc1ccc(C2=C(c3ccc(O)cc3)C3CC(S(=O)(=O)N(CC(F)(F)F)c4ccccc4)C2O3)cc1 (stereo not drawn) [Compound 29e]	n
CC(C)CC(=O)Nc1ccc(C2=C(c3ccc(O)cc3)[C@H]3O[C@@H]2CC3S(=O)(=O)N(CC(F)(F)F)c2ccc(O)cc2)cc1 (mixture of isomers) [Compound 29k]	y
O=C(CBr)Nc1ccc(C2=C(c3ccc(O)cc3)C3OC2CC3S(=O)(=O)Oc2ccccc2)cc1 (stereo not drawn) [Compound 28e]	n
CC(C)=CC(=O)Nc1ccc(C2=C(c3ccc(O)cc3)C3CC(S(=O)(=O)Oc4ccc(O)cc4)C2O3)cc1 (stereo not drawn) [Compound 28f]	y

Ask | Record CC(C)=CC(=O)Nc1ccc(C2=C(c3ccc(O)cc3)C3OC2CC3S(=O)(=O)N(CC(F)(F)F)c2ccc(F)cc2)cc1 (stereo not drawn) [Compound 29g] : is its α/β ratio strictly below 7?
Reply | n

* * *

Biological target: UniProtKB P03372
Sequence (P03372 1-595): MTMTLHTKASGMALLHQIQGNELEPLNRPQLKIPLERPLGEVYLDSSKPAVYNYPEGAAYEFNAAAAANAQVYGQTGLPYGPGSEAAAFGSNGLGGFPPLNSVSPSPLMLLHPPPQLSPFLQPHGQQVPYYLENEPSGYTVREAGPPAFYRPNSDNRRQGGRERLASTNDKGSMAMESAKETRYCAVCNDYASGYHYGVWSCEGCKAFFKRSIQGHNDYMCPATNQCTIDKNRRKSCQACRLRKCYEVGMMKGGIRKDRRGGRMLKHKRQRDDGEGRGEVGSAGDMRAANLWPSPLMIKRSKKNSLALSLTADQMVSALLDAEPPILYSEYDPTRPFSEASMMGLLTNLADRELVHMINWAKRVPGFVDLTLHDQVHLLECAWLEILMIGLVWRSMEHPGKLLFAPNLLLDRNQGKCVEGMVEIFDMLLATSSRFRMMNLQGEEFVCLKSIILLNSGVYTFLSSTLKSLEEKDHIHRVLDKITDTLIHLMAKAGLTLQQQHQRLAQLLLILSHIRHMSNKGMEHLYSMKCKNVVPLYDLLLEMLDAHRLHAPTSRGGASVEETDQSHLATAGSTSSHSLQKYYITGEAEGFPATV
Experiment: cell-based
Type: cell-based
Conditions: read-out: Antagonist mode ERα IC50; with 10 nmol/L 17β-estradiol
Quantity: pIC50
Answer as the number alone; pIC50 is minus log10 of concentration in mol/L.

COc1ccc(N(CC(F)(F)F)S(=O)(=O)C2CC3OC2C(c2ccc(O)cc2)=C3c2ccc(NC(=O)C=C(C)C)cc2)cc1 (stereo not shown) [Compound 29f] tested on UniProtKB P03372 gave pIC50: 6.68

* * *

Assay: PK studies in mice
Assay type: in vivo, BALB/c female mice
Conditions: female, BALB/c, mouse, plasma, po, 20 mg/kg
Quantity: Tmax (min)
Please respond with the number in min and leave the unit unwritten.

Reported Tmax of CC(C)=CC(=O)Nc1ccc(C2=C(c3ccc(O)cc3)C3OC2CC3S(=O)(=O)N(CC(F)(F)F)c2ccc(O)cc2)cc1 (stereo not shown) [Compound 29c] : 30

* * *

Biological target: human ERα LBD (Homo sapiens)
Assay: Competitive fluorescence polarization binding assay, ERα
Conditions: IC50 estradiol/IC50 compound × 100, estradiol = 100%
A collection of compounds and their measured RBA ERα
Value and unit, in that order.

Answered cases to consult:
Compound	RBA ERα
C=CC(=O)Nc1ccc(OS(=O)(=O)C2CC3OC2C(c2ccc(O)cc2)=C3c2ccc(O)cc2)cc1 (stereo not drawn) [Compound 26a]	8.04 ± 0.87%
CC(C)=CC(=O)Nc1ccc(C2=C(c3ccc(O)cc3)C3OC2CC3S(=O)(=O)N(CC(F)(F)F)c2cccc(O)c2)cc1 (stereo not drawn) [Compound 29h]	7.89 ± 0.11%

Now look at this one.
CC(C)=CC(=O)Nc1ccc(C2=C(c3ccc(O)cc3)C3CC(S(=O)(=O)Oc4ccc(O)cc4)C2O3)cc1 (stereo not drawn) [Compound 28f] tested on human ERα LBD (Homo sapiens) gave RBA ERα: 7.93 ± 0.34%

* * *

Biological target: human ERα LBD (Homo sapiens)
Test: Competitive fluorescence polarization binding assay, ERα
Details: ratio of RBA ERα to RBA ERβ
Quantity: α/β ratio
Lab note: record just the number, no unit beside it.

Compound	Quantity	Recorded Result
O=C(CCl)Nc1ccc(C2=C(c3ccc(O)cc3)C3CC(S(=O)(=O)Oc4ccccc4)C2O3)cc1 (stereo not drawn) [Compound 28d]	α/β ratio	3.76
C/C=C/C(=O)Nc1ccc(OS(=O)(=O)C2CC3OC2C(c2ccc(O)cc2)=C3c2ccc(O)cc2)cc1 (stereo not drawn) [Compound 26b]	α/β ratio	11.93

Now look at this one.
Reported α/β ratio of CC(C)=CC(=O)Nc1ccc(C2=C(c3ccc(O)cc3)C3OC2CC3S(=O)(=O)N(CC(F)(F)F)c2cccc(O)c2)cc1 (stereo not drawn) [Compound 29h] : 17.93

* * *

Test system: MCF-7 cells
Test: Cell viability assay
Assay type: cell-based, human
Conditions: Homo sapiens, MCF7, 72 h, read-out: MCF-7 IC50
A collection of compounds and their measured IC50
Please respond with the number in nM and leave the unit unwritten.

Answered cases to consult:
Compound	Recorded Result
CC(C)=CC(=O)Nc1ccc(C2=C(c3ccc(O)cc3)C3CC(S(=O)(=O)N(CC(F)(F)F)c4ccc(C)cc4)C2O3)cc1 (stereo not shown) [Compound 29d]	750
CC(C)CC(=O)Nc1ccc(C2=C(c3ccc(O)cc3)[C@H]3O[C@@H]2CC3S(=O)(=O)N(CC(F)(F)F)c2ccc(O)cc2)cc1 (mixture of isomers) [Compound 29k]	1060
O=C(CBr)Nc1ccc(C2=C(c3ccc(O)cc3)C3OC2CC3S(=O)(=O)Oc2ccccc2)cc1 (stereo not shown) [Compound 28e]	1100

Now look at this one.
Reported IC50 of CC(C)=CC(=O)Nc1ccc(C2=C(c3ccc(O)cc3)C3CC(S(=O)(=O)N(CC(F)(F)F)c4ccccc4)C2O3)cc1 (stereo not shown) [Compound 29e] : 660
